# ASSAY_DETAILS: endothelial E-selectin expression blockers – imaging, HUVEC, immunofluorescence, MLSMR starter and 10KST1 sets, primary screen (AID 487);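 note: 100% = median nuclei count of all wells on the same plate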
# COND: HUVEC TNFalpha-induced E-selectin immunofluorescence imaging, at 2 µM; measured here: cell number, toxicity
Readings of nuclei count for the listed molecules
MEASUREMENT_KIND: nuclei count (%)

{"MOLECULE": "Cc1ccccc1N1OC2C(=O)N(c3ccc(F)cc3)C(=O)C2C1c1ccccn1 (stereo not drawn)", "MEASUREMENT_KIND": "nuclei count", "ASSAY_RESULT": 152}
{"MOLECULE": "COc1ccccc1NC(=O)N1CCN(c2ccccc2F)CC1", "MEASUREMENT_KIND": "nuclei count", "ASSAY_RESULT": 102}
{"MOLECULE": "O=C(O)[C@@H]1CCCN1c1ncnc2sc3c(c12)CCC3", "MEASUREMENT_KIND": "nuclei count", "ASSAY_RESULT": 247}
{"MOLECULE": "CC1(c2ccc(Cl)cc2)NC(=O)N(CC(=O)NC(=O)NCc2ccco2)C1=O (stereo not drawn)", "MEASUREMENT_KIND": "nuclei count", "ASSAY_RESULT": 110}
{"MOLECULE": "CCN(CC)S(=O)(=O)c1ccc2oc(C(=O)N3CCOCC3)c(C)c2c1", "MEASUREMENT_KIND": "nuclei count", "ASSAY_RESULT": 92.5}
{"MOLECULE": "CC(=O)N1CCN(Cc2ccc(Br)s2)CC1", "MEASUREMENT_KIND": "nuclei count", "ASSAY_RESULT": 106}
{"MOLECULE": "Clc1cccc(-c2nnc3sc(-c4ccccc4)nn23)c1", "MEASUREMENT_KIND": "nuclei count", "ASSAY_RESULT": 104}
{"MOLECULE": "Clc1cccc(Nc2c3c(nc4ncnn24)CCC3)c1", "MEASUREMENT_KIND": "nuclei count", "ASSAY_RESULT": 145}
{"MOLECULE": "O=C(Nc1ncc2c(n1)CC(c1ccccc1)CC2=O)c1ccco1 (stereo not drawn)", "MEASUREMENT_KIND": "nuclei count", "ASSAY_RESULT": 86}
{"MOLECULE": "CCOC(=O)c1cn(CC)c2cc(N3CCOCC3)c(F)cc2c1=O", "MEASUREMENT_KIND": "nuclei count", "ASSAY_RESULT": 114}
{"MOLECULE": "CCNC(=O)CC1C(=O)N(c2ccccc2)C(=O)N1CCC(C)C (stereo not drawn)", "MEASUREMENT_KIND": "nuclei count", "ASSAY_RESULT": 97.9}
{"MOLECULE": "O=C(O)c1cccc(NC(=O)C23CC4CC(C2)CC(n2cnc(Cl)n2)(C4)C3)c1", "MEASUREMENT_KIND": "nuclei count", "ASSAY_RESULT": 115}
{"MOLECULE": "CN(c1ccccc1C(N)=O)S(=O)(=O)c1ccccc1", "MEASUREMENT_KIND": "nuclei count", "ASSAY_RESULT": 108}
{"MOLECULE": "Cc1c(NC(=O)c2noc3c2CCc2ccccc2-3)c(=O)n(-c2ccccc2)n1C", "MEASUREMENT_KIND": "nuclei count", "ASSAY_RESULT": 116}
{"MOLECULE": "Cn1c(C(=O)N2CCN(C(=O)c3ccco3)CC2)cc2c(=O)n3ccccc3nc21", "MEASUREMENT_KIND": "nuclei count", "ASSAY_RESULT": 118}
{"MOLECULE": "COc1cccc(NC(=O)COC(=O)c2cccnc2)c1", "MEASUREMENT_KIND": "nuclei count", "ASSAY_RESULT": 108}
{"MOLECULE": "COc1ccc(-c2nc(C(N)=O)c3[nH]c(=O)n(-c4cccc(Cl)c4)c3n2)cc1OC", "MEASUREMENT_KIND": "nuclei count", "ASSAY_RESULT": 114}
{"MOLECULE": "O=C(OCn1nnc2ccccc2c1=O)C1CCN(S(=O)(=O)c2cccs2)CC1", "MEASUREMENT_KIND": "nuclei count", "ASSAY_RESULT": 105}
{"MOLECULE": "Cc1[nH]nc(N=CC2=C(O)CC(C)(C)CC2=O)c1-c1ccccc1", "MEASUREMENT_KIND": "nuclei count", "ASSAY_RESULT": 95.3}
{"MOLECULE": "COc1cc(C(=O)Nc2ccc(-n3cnnn3)c(C)c2)cc(OC)c1OC", "MEASUREMENT_KIND": "nuclei count", "ASSAY_RESULT": 149}
{"MOLECULE": "CCN(CC)C1CCCCC1NS(=O)(=O)c1ccc(Cl)cc1 (stereo not drawn)", "MEASUREMENT_KIND": "nuclei count", "ASSAY_RESULT": 82.7}
{"MOLECULE": "CCCn1cc(SCC(N)=O)c2ccccc21", "MEASUREMENT_KIND": "nuclei count", "ASSAY_RESULT": 113}
{"MOLECULE": "COc1ccc(NC(=O)CSc2nc3c(c(=O)n2-c2ccc(F)cc2)SCC3)cc1", "MEASUREMENT_KIND": "nuclei count", "ASSAY_RESULT": 91.5}

----------
# ASSAY_DETAILS: inhibitors of TNFa-induced NFkB p65 translocation, primary screen, imaging, HUVEC, MLSMR starter and 10KST1 sets (AID 438);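 note: compound added about 3h40 before a 20 min TNFalpha stimulation; signal is the nuclear over cytoplasmic p65 intensity ratio per well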
# COND: HUVEC TNFa-induced p65 nuclear translocation; at 2 µM, stronger effect = higher value, 0% TNFa-plus-vehicle, 100% no-TNFa wells
MEASUREMENT_KIND: inhibition (%)

{"MOLECULE": "O=C(Nc1ccc2c(c1)OCO2)c1ccc(CN2CCOCC2)cc1", "ASSAY_RESULT": -5.1}
{"MOLECULE": "C1CCc2nnc(-c3nnc4n3CCCCC4)n2CC1", "ASSAY_RESULT": 3}
{"MOLECULE": "O=C1C2CC=C(Cl)CC2C(=O)N1c1ncn[nH]1 (stereo unspecified)", "ASSAY_RESULT": 5.5}
{"MOLECULE": "COc1ccccc1C(=O)N1CCN(C(=O)c2ccncc2)CC1", "ASSAY_RESULT": 7.8}
{"MOLECULE": "Cc1nc2c(C(=O)O)cnn2c(C)c1Cc1ccccc1F", "ASSAY_RESULT": -12.2}
{"MOLECULE": "CCn1cc(C(=O)NC2CCc3ccccc32)c(=O)c2ccc(C)nc21 (stereo unspecified)", "ASSAY_RESULT": -2.2}
{"MOLECULE": "CCN(CC)S(=O)(=O)c1ccc2oc(C(=O)N3CCOCC3)c(C)c2c1", "ASSAY_RESULT": -12}
{"MOLECULE": "Cc1ccc(N2CCN(C(=O)c3ccccc3)CC2)c(C)c1", "ASSAY_RESULT": -0.5}
{"MOLECULE": "Oc1ccc(N2CCN(C(c3ccncc3)c3nnnn3C3CCCC3)CC2)cc1 (stereo unspecified)", "ASSAY_RESULT": -18.3}
{"MOLECULE": "Cc1ccccc1N(C)S(=O)(=O)c1ccc2[nH]cc(C(=O)NCC3CCCO3)c(=O)c2c1 (stereo unspecified)", "ASSAY_RESULT": -20.4}
{"MOLECULE": "O=C1CC(c2cccc(Cl)c2)Cc2nc(N3CCN(c4ccccc4)CC3)ncc21 (stereo unspecified)", "ASSAY_RESULT": -1.6}
{"MOLECULE": "Cc1cccc(-n2nc3c(c2NC(=O)CCC2CCCCC2)CS(=O)C3)c1C (stereo unspecified)", "ASSAY_RESULT": -8.7}
{"MOLECULE": "O=S(=O)(Nc1ncccn1)c1ccc(Nc2ncnc3ccccc23)cc1", "ASSAY_RESULT": -16.4}
{"MOLECULE": "CC(C)(C)c1cc(CCC(=O)N2CCNCC2)c(C(C)(C)C)cc1O", "ASSAY_RESULT": -31.3}
{"MOLECULE": "COc1ccc(N(C)C(=O)CCS(=O)(=O)c2cccc3nonc23)c(OC)c1", "ASSAY_RESULT": -1.4}
{"MOLECULE": "CC1CCCN(C(=O)c2cc(F)c(F)cc2Cl)C1 (stereo unspecified)", "ASSAY_RESULT": -1.3}
{"MOLECULE": "Nc1nc(SCc2ccc(Cl)cc2Cl)n[nH]1", "ASSAY_RESULT": -1.7}
{"MOLECULE": "CC1CN(S(=O)(=O)c2ccc(Cl)c(C(F)(F)F)c2)CC(C)O1 (stereo unspecified)", "ASSAY_RESULT": 6.1}
{"MOLECULE": "CCOC(=O)c1oc2ccccc2c1NC(=O)c1cccc(OC)c1OC", "ASSAY_RESULT": -14.1}
{"MOLECULE": "CSc1nnc(-c2ccc(NC(=O)CCc3ccccc3)cc2)n1C", "ASSAY_RESULT": -28.4}
{"MOLECULE": "c1ccc(Cc2nn3c(Cn4cnc5ccccc54)nnc3s2)cc1", "ASSAY_RESULT": 1.4}
{"MOLECULE": "O=C(NCc1cccs1)c1cc2c(s1)CCCC2", "ASSAY_RESULT": -16.3}
{"MOLECULE": "NC(=O)c1sc2nc3c(c(-c4ccco4)c2c1N)CCC3", "ASSAY_RESULT": 5.8}
{"MOLECULE": "CC1CCN(c2nc3c(c(=O)[nH]c(=O)n3C)n2CCSc2ncccn2)CC1", "ASSAY_RESULT": 0.8}
{"MOLECULE": "Cc1nc2c(-c3ccccc3)c(C)nn2c(C)c1CCC(=O)O", "ASSAY_RESULT": 6.1}
{"MOLECULE": "COc1cc(C(=O)N2CCC(NC(=O)C(Cc3ccc(C)cc3)NC(C)=O)CC2)cc(OC)c1OC (stereo unspecified)", "ASSAY_RESULT": -6.1}
{"MOLECULE": "CC1CCCCN1S(=O)(=O)c1ccc(NC(=O)c2cccs2)cc1 (stereo unspecified)", "ASSAY_RESULT": -14.6}
{"MOLECULE": "Cc1cc(C(=O)NCCCN2CCOCC2)n(-c2ccccc2)n1", "ASSAY_RESULT": 3.3}
{"MOLECULE": "O=C(CCN1C(=O)c2ccccc2C1=O)NCCN1CCOCC1", "ASSAY_RESULT": -10.6}
{"MOLECULE": "Cc1cc(OCC(=O)N2CCCC2)cc(C)c1Cl", "ASSAY_RESULT": 6.6}
{"MOLECULE": "CCCC(C)c1nnc(NC(=O)C2CCCO2)s1 (stereo unspecified)", "ASSAY_RESULT": 0}
{"MOLECULE": "O=C1CCCC2=C1C(c1cccs1)n1nc(SCc3ccccc3F)nc1N2 (stereo unspecified)", "ASSAY_RESULT": 8.6}
{"MOLECULE": "O=C(Cn1nc(Cc2ccncc2)c2ccccc2c1=O)N1CCN(C(=O)c2ccco2)CC1", "ASSAY_RESULT": -7.3}
{"MOLECULE": "COCCOC(=O)/C=C1/NC(=O)CS1", "ASSAY_RESULT": 5.3}
{"MOLECULE": "COc1ccc(S(=O)(=O)N2CCSC2c2ccccc2)cc1 (stereo unspecified)", "ASSAY_RESULT": -3.1}
{"MOLECULE": "O=C(Nc1cccnc1)c1cccc(NC(=O)c2ccco2)c1", "ASSAY_RESULT": 1.5}
{"MOLECULE": "CC(C)CC(=O)Nc1ccccc1-c1nnn(CC(=O)N2CCOCC2)n1", "ASSAY_RESULT": -6.7}
{"MOLECULE": "CCCCn1nc(C(=O)N2CCc3ccccc32)c2ccccc2c1=O", "ASSAY_RESULT": -9}
{"MOLECULE": "COC(=O)c1sc(N)c(C(=O)OC)c1CSc1nc2sc3c(c2c(=O)n1C)CCC3", "ASSAY_RESULT": 14.1}
{"MOLECULE": "CCCS(=O)(=O)N1CCN(C(=O)c2cccnc2)CC1", "ASSAY_RESULT": 5.5}
{"MOLECULE": "COc1ccc(OC)c(C(C)NC=O)c1 (stereo unspecified)", "ASSAY_RESULT": 3}
{"MOLECULE": "COC(=O)C1=C(C)C(c2cccs2)NC(=O)N1C (stereo unspecified)", "ASSAY_RESULT": 4.4}
{"MOLECULE": "CCCNc1nc2c(c(=O)n(C)c(=O)n2C)n1Cc1cccc(C)c1", "ASSAY_RESULT": -3.6}
{"MOLECULE": "Cc1nc(C)c(C(=O)C2=C(O)C(=O)N(CCN3CCOCC3)C2c2ccco2)s1 (stereo unspecified)", "ASSAY_RESULT": -3.2}
{"MOLECULE": "Cc1ccc(-n2c3c(cc(C(=O)NCCCN4CCOCC4)c2=O)C(=O)CC(C)(C)C3)cc1", "ASSAY_RESULT": -0.6}
{"MOLECULE": "Cn1cnc2c1c(=O)n(Cc1cccc(Br)c1)c(=O)n2C", "ASSAY_RESULT": 1.4}
